- system-tested: NL20 human bronchial epithelial cells expressing human Z-AAT (Homo sapiens, UniProt P01009, E366K)
- Construct: doxycycline added with compounds)
- Sequence (P01009 25-418 E366K): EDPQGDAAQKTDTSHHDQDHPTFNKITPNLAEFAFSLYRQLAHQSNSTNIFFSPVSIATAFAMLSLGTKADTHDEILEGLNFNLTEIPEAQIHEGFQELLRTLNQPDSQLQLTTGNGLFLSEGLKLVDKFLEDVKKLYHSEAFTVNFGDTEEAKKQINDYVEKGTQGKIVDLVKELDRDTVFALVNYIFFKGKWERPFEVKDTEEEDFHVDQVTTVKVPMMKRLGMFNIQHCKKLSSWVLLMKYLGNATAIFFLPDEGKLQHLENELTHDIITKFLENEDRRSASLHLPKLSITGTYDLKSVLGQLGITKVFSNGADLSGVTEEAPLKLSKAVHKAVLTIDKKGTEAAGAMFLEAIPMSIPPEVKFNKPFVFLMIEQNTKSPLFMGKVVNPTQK
- protocol-description: AAT Function Assay (MSD Assay NL20-SI Cell Line)
- study-conditions: read-out: NL20 Functional EC50
pEC50: −log10 of the molar value.
measured-endpoint: pEC50

Example results:
>>> df
                           substance_smiles        result
0  Cc1cc(-n2c(C3CCOCC3)c(-c3ccc(C(=O)O)cc3)c3c(O)c(F)ccc32)ccc1F        > 6.30
1  C[C@]1(O)C[C@@H](c2c(-c3ccc(C(=O)O)cc3)c3c(O)cccc3n2-c2ccc(F)cc2)C1        < 5.70
2  Cc1cc(-n2c(C3CCOCC3)c([C@H]3C[C@](C)(C(=O)O)C3)c3cc(F)ccc32)ccc1F  5.70 to 6.30

From here, focus on the item given below.
Please look up its pEC50: COCC(C)(C)c1c(-c2ccc(C(=O)O)cc2)c2c(O)cc(F)cc2n1-c1cncc(C)c1
< 5.70

The values you see were collected from patent US20230159502A1.
